List of growth inhibition values.
experiment notes: NCI Yeast Anticancer Drug Screen. Data for the sgs1 strain (AID 173);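 also: 0% = growth of vehicle-only control cultures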
measurement parameters: S. cerevisiae sgs1 mutant, at 3.7 µM, active compounds read high
About 79,000 compounds went through this panel and 15% of them were active in at least one assay; those are over-represented in the sample as a whole. Residues, ends and D or L forms follow the SMILES beside them. *: point of attachment. CH2Cl = ClC*

- molecule: "S=C(S)NCC1CCC(CNC(=S)S)CC1 (centres undefined)"
  growth inhibition, %: 14
- molecule: "Cn1c2nc3ccccc3c-2nc2ccccc21"
  growth inhibition, %: 42
- molecule: "CCOC(=O)C(NC(=O)CC)(N1CCN(c2cc3c(cc2F)c(=O)c(C(=O)O)cn3C2CC2)CC1)C(F)(F)F (centres undefined)"
  growth inhibition, %: 1
- molecule: "CC(=O)NC(CC(C)C)C(=O)NC(Cc1ccccc1)C(=O)CCl (stereo not drawn) (Ac-Leu-Phe-CH2Cl; configuration not given here)"
  growth inhibition, %: -4
- molecule: "O=[N+]([O-])c1cc(S(=O)(=O)Nc2ccccc2)ccc1Cl"
  growth inhibition, %: -3
- molecule: "O=Nc1ccc(Nc2ccccc2)cc1"
  growth inhibition, %: -42
- molecule: "COc1cc([C@@H]2c3cc4c(cc3[C@@H](OC3OC5COC(C)OC5C(O)C3O)[C@H]3COC(=O)[C@H]23)OCO4)cc(OC)c1O (some centres undefined)"
  growth inhibition, %: -3
- molecule: "Nc1nc(N)c2c(n1)CCC(S(=O)(=O)c1ccc3ccccc3c1)C2 (centres undefined)"
  growth inhibition, %: 45
- molecule: "CC(=O)C1(O)Cc2c(O)c3c(c(O)c2C(OC2CC(N)C(O)C(C)O2)C1)C(=O)c1ccccc1C3=O (centres undefined)"
  growth inhibition, %: 60

====

experiment notes: NCI Yeast Anticancer Drug Screen. Data for the rad18 strain (AID 177)
measurement parameters: S. cerevisiae rad18 mutant growth inhibition; at 1.2 µM; active compounds read high
Compounds without any hit were thinned out: in the full panel of roughly 79,000, 15% have a hit. Residues, ends and D or L forms follow the SMILES beside them. *: point of attachment. CH2Cl = ClC*
List of growth inhibition values.

- molecule: "COc1ccc2oc(-c3ccc(Cl)cc3)c(N3CCN(C)CC3)c2c1"
  units: "%"
  growth inhibition: 1
- molecule: "Nc1ccc(S(=O)(=O)Nc2ccc(Nc3c4ccccc4nc4ccccc34)cc2)cc1"
  units: "%"
  growth inhibition: 17
- molecule: "COc1ccc(N2CN(C)CSC2=S)cc1"
  units: "%"
  growth inhibition: -67
- molecule: "Cn1c2nc3ccccc3c-2nc2ccccc21"
  units: "%"
  growth inhibition: 8
- molecule: "Clc1c(Cl)c(Cl)c2c(nnn2C2CCCO2)c1Cl (centres undefined)"
  units: "%"
  growth inhibition: -15
- molecule: "Cc1cccc(/C=N\\NC(=S)N2CCCCC2)n1"
  units: "%"
  growth inhibition: -7
- molecule: "CC(=O)NC(CC(C)C)C(=O)NC(Cc1ccccc1)C(=O)CCl (stereo not drawn) (Ac-Leu-Phe-CH2Cl; configuration not given here)"
  units: "%"
  growth inhibition: -3
- molecule: "N#C/C(=C\\c1ccccc1)c1ccccc1F"
  units: "%"
  growth inhibition: -2
- molecule: "COc1ccc(C(C#N)=C2C=CC(=NO)C=C2)cc1"
  units: "%"
  growth inhibition: 11
- molecule: "Cc1ccc(N=Nc2ccc(O)c(C)c2)cc1"
  units: "%"
  growth inhibition: 27
- molecule: "CCCCCCCCCCCc1nc(N)n[nH]1"
  units: "%"
  growth inhibition: -12
- molecule: "c1ccc2c(c1)ccc1c3ccncc3ccc21"
  units: "%"
  growth inhibition: -2
- molecule: "ClCCn1c(CCl)nc2ccc(Cl)cc21"
  units: "%"
  growth inhibition: -29
- molecule: "O=S1(=O)c2ccccc2N=C(c2ccccc2Cl)CC1c1ccc(F)cc1 (centres undefined)"
  units: "%"
  growth inhibition: -3
- molecule: "S=C(S)NCC1CCC(CNC(=S)S)CC1 (centres undefined)"
  units: "%"
  growth inhibition: 2
- molecule: "CC[C@@]1(OC(=O)CCC(=O)O)C(=O)OCc2c1cc1n(c2=O)Cc2cc3ccccc3nc2-1"
  units: "%"
  growth inhibition: 6
- molecule: "CN=C(N)N/N=C(\\C)c1ccc2oc3ccc(/C(C)=N/NC(N)=NC)cc3c2c1"
  units: "%"
  growth inhibition: -13
- molecule: "Cc1cccc2c1N=C(C(F)(F)F)CC2=O"
  units: "%"
  growth inhibition: 0
- molecule: "CNc1nc(C)nc2c1cnn2-c1ccc([N+](=O)[O-])cc1"
  units: "%"
  growth inhibition: -1
- molecule: "CC(=O)N1C(=O)/C(=C\\C(=O)c2ccc(Cl)cc2)c2ccccc21"
  units: "%"
  growth inhibition: 14
- molecule: "CCCCCCCCCCCCCCCCNC(=O)/C(=C\\c1ccc(Cl)c(Cl)c1)NC(=O)c1ccccc1"
  units: "%"
  growth inhibition: 7
- molecule: "CC(=O)Oc1ccc(C(=O)c2ccccc2)c(O)c1"
  units: "%"
  growth inhibition: 0
- molecule: "CCCCC(CC)C(=O)Oc1ccc(C(=O)c2ccccc2)c(O)c1 (centres undefined)"
  units: "%"
  growth inhibition: -4
- molecule: "CN(C)CCNc1cccc2sc3ccc(O)cc3c(=O)c12"
  units: "%"
  growth inhibition: -2
